- targetSystem: T1, cTnI quality control product recombinant protein (human, UniProt P19429 2-210, limits assumed)
- T1 construct: treated as the same molecule; also called cTnI antigen; cardiac troponin I
- T1 sequence (P19429 2-210 limits assumed): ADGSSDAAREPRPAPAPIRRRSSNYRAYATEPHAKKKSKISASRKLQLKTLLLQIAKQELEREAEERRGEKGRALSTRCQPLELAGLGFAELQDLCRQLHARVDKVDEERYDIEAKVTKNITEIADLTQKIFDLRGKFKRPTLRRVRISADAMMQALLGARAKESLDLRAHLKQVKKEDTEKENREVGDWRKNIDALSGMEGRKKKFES
- protocolNotes: AMC sensor, antibody immobilised, cTnI in solution
assayMetric: Kd (nM)
Provide only the numeric value, understood in nM.

// Kd value for Mutation 1 (antibody, V domains shown, CDR mutant of WT) VH: EVQLQQSGPELVKPGASVKMSCKASGYTFTLYVVHWVKQKPGQGLEWIGYIQPYLDGTKYNEKFKGKATLTVDKSSSTAFMELSSLTSEDSAVYYCARSGYGGYGLAWLAYWGQGTLVTVSA VL: QAVVIQESALTTSPGETVTLTCRSSTGAATTSQYANWVQEKPDHLFTGLIGGSNNRAPGVPARFSGSLIGDKAALTITGAQTEDEAIYFCALVYSNHWVFGGGTKLTVLG : 4.2

// Kd value for Mutation 1-16 (antibody, V domains shown, Built as m8) VH: EVQLQQSGPELVKPGASVKMSCKASGYTFTLYVLHWVKQKPGQGLEWIGYINPYLDGTKYNEKFKGKATLTVDKSSSTAFMELSSLTSEDSAVYYCARSGYGNYGLAWLAYWGQGTLVTVSA VL: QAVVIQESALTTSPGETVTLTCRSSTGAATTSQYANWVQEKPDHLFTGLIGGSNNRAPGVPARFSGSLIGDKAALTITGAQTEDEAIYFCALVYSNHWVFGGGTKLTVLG : 6.48

// Kd value for Mutation 1-50 (antibody, V domains shown) VH: EVQLQQSGPELVKPGASVKMSCKASGYTFTIYVIHWVKQKPGQGLEWIGYIYPYIDGTKYNEKFKGKATLTVDKSSSTAFMELSSLTSEDSAVYYCARSGYGGYGLAWLAYWGQGTLVTVSA VL: QAVVIQESALTTSPGETVTLTCRSSTGAATTSQYANWVQEKPDHLFTGLIGGSQNRAPGVPARFSGSLIGDKAALTITGAQTEDEAIYFCALVYSNHWVFGGGTKLTVLG : 4.61
